Tested on: 388556-164-R-J1-PDC complex spheroid viability;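 note: spheroids exposed to compound for 7 days before readout; 100% = DMSO vehicle control luminescence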
Test: Anticancer human tumor 388556-164-R-J1-PDC patient-derived colon adenocarcinoma cell line growth inhibition [RAS]
Settings: second compound 0.00949 µM; first compound 0.316 µM; stronger effect = lower value
recorded-endpoint: viability, T/C (%)
Number in %, nothing else.

For orientation, consider the following solved cases.
molecule | target-of-assay | recorded-endpoint | measurement
Cc1nc(N2CCC3(CC2)COC(C)C3N)c(CO)nc1Sc1ccnc(N)c1Cl (stereo not drawn) + CCn1c(-c2cccnc2C(C)OC)c2c3cc(ccc31)N1CCOC(CC(NC(=O)C(C(C)C)N(C)C(=O)C3(F)CCN(C(=O)C#CC(C)(C)N(C)C)CC3)C(=O)N3CCCC(N3)C(=O)OCC(C)(C)C2)C1 | 388556-164-R-J1-PDC complex spheroid viability | viability, T/C | 82.9
C[C@@H](NC(=O)c1ncnc(N)c1Cl)c1ncc(C(=O)Nc2cc(C(F)(F)F)c(Cl)cn2)s1 + CCn1c(-c2cc(N3CCN(C)CC3)cnc2C(C)OC)c2c3cc(ccc31)-c1csc(n1)CC(NC(=O)C1CC1C)C(=O)N1CCCC(N1)C(=O)OCC(C)(C)C2 | 388556-164-R-J1-PDC complex spheroid viability | viability, T/C | 89.5
Nc1ccn(C2OC(CO)C(O)C2(F)F)c(=O)n1 (stereo not drawn) + CCn1c(-c2cc(N3CCN(C)CC3)cnc2C(C)OC)c2c3cc(ccc31)-c1csc(n1)CC(NC(=O)C1CC1C)C(=O)N1CCCC(N1)C(=O)OCC(C)(C)C2 | 388556-164-R-J1-PDC complex spheroid viability | viability, T/C | 56.9
CC(C)NCC(C(=O)N1CCN(c2ncnc3c2C(C)CC3O)CC1)c1ccc(Cl)cc1 (stereo not drawn) + CCn1c(-c2cc(N3CCN(C)CC3)cnc2C(C)OC)c2c3cc(ccc31)-c1csc(n1)CC(NC(=O)C1CC1C)C(=O)N1CCCC(N1)C(=O)OCC(C)(C)C2 | 388556-164-R-J1-PDC complex spheroid viability | viability, T/C | 69.4
CC(=O)OC12COC1CC(O)C1(C)C(=O)C(O)C3=C(C)C(OC(=O)C(O)C(NC(=O)OC(C)(C)C)c4ccccc4)CC(O)(C(OC(=O)c4ccccc4)C21)C3(C)C (stereo not drawn) + CCn1c(-c2cc(N3CCN(C)CC3)cnc2C(C)OC)c2c3cc(ccc31)-c1csc(n1)CC(NC(=O)C1CC1C)C(=O)N1CCCC(N1)C(=O)OCC(C)(C)C2 | 388556-164-R-J1-PDC complex spheroid viability | viability, T/C | 52.8
CC(Nc1ccc2c(c1)OCCn1cc(N3C(=O)OCC3C(F)F)nc1-2)C(N)=O (stereo not drawn) + CCn1c(-c2cc(N3CCN(C)CC3)cnc2C(C)OC)c2c3cc(ccc31)-c1csc(n1)CC(NC(=O)C1CC1C)C(=O)N1CCCC(N1)C(=O)OCC(C)(C)C2 | 388556-164-R-J1-PDC complex spheroid viability | viability, T/C | 48.5
NC1c2ccccc2OC12CCN(c1cnc3c(N4CCCc5ncccc54)n[nH]c3n1)CC2 (stereo not drawn) + CCn1c(-c2cc(N3CCN(C)CC3)cnc2C(C)OC)c2c3cc(ccc31)-c1csc(n1)CC(NC(=O)C1CC1C)C(=O)N1CCCC(N1)C(=O)OCC(C)(C)C2 | 388556-164-R-J1-PDC complex spheroid viability | viability, T/C | 30.6

The record that follows has no viability, T/C shown yet.
Query string: Which viability, T/C is listed for Cc1nc(N2CCC3(CC2)COC(C)C3N)c(CO)nc1Sc1ccnc(N)c1Cl (stereo not drawn) + CCn1c(-c2cc(N3CCN(C)CC3)cnc2C(C)OC)c2c3cc(ccc31)-c1csc(n1)CC(NC(=O)C1CC1C)C(=O)N1CCCC(N1)C(=O)OCC(C)(C)C2 ?
Result string: 52.5
